src = paper PMC11367644

# experimental-target: T1, FIP200 claw domain (1490-1594) Q1566A (human, UniProt Q8TDY2 1490-1594, Q1566A)
# T1 construct: source: E. coli Rosetta (DE3), purified (Ni-NTA, Superdex 200, HiTrap SP FF); not shown: SUMO, N-terminal, cleaved
# T1 sequence (Q8TDY2 1490-1594 Q1566A): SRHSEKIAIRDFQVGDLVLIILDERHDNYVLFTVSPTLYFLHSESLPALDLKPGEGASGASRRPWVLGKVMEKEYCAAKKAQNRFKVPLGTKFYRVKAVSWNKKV
# assay-protocol: ITC; peptide (4 mM) injected into FIP200 claw protein (0.25 mM); 20 °C; buffer B (50 mM NaH2PO4, 150 mM NaCl, pH 7.0); single binding site model
# settings: both partners purified
pKd: −log10 of the molar value. Square brackets hold non-standard residues; d marks the D form. Ends that are not written are not given here. pS = N[C@@H](COP(=O)(O)O)C(=O)O
attribute-measured: pKd

I = SSGTS[pS]EFEVV (FIR motif of TNIP1; source: synthetic peptide (GL Biochem, Shanghai)) [TNIP1_pS123 peptide]
II = SSGTS[pS]EFEVVTPEEQ (FIR motif of TNIP1 with an elongated C terminus (T129-Q133); source: synthetic peptide (GL Biochem, Shanghai)) [TNIP1_pS123^long peptide]
Return label of the item with the larger pKd. Candidates: I , II . Lab log: write the label of the selected item as the result.
II
